tested on: LNCaP xenografts; experiment: Biodistribution in LNCaP xenografts; type: in vivo, mice; details: 1 h after injection
endpoint: Biodistribution, Intestine (%IA/g)

compound	assayed_system	assay_result
O=C([O-])CN(CCN(CC(=O)[O-])Cc1cc(CCC(=O)NCCCCCC(=O)NCCCC[C@H](NC(=O)N[C@@H](CCC(=O)O)C(=O)O)C(=O)O)ccc1[O-])Cc1cc(CCC(=O)O)ccc1[O-].[68Ga+3].[OH3+] [[^68Ga]Ga-PSMA-11, reference compound]	LNCaP xenografts	1.52
O=C([O-])CN1CCN(CC(=O)[O-])CCN(C(CCC(=O)N[C@H](Cc2ccc(O)c(I)c2)C(=O)N[C@H](Cc2ccccc2)C(=O)N[C@H](CCCCNC(=O)CCCCCCC(=O)NCCCC[C@H](NC(=O)N[C@@H](CCC(=O)O)C(=O)O)C(=O)O)C(=O)O)C(=O)O)CC1.[61Cu+2] (stereo partly drawn) [[^61Cu]Cu-NODAGA-PSMA-I&T, NODAGA-(l-y)fk(sub-KuE)]	LNCaP xenografts	2.11
O=C(O)CC[C@H](NC(=O)N[C@@H](CCCCNC(=O)[C@H](Cc1ccc2ccccc2c1)NC(=O)c1ccc(CNC(=O)[C@H](CCC(=O)O)NC(=O)[C@H](CCC(=O)O)NC(=O)c2ccc([18F])nc2)cc1)C(=O)O)C(=O)O [[^18F]PSMA-1007, reference compound]	LNCaP xenografts	1.04
O=C([O-])CN1CCN(CC(=O)O)CCN(CC(=O)[O-])CCN(C(CCC(=O)N[C@H](Cc2ccc(O)c(I)c2)C(=O)N[C@H](Cc2ccccc2)C(=O)N[C@H](CCCCNC(=O)CCCCCCC(=O)NCCCC[C@H](NC(=O)N[C@@H](CCC(=O)O)C(=O)O)C(=O)O)C(=O)O)C(=O)O)CC1.[61Cu+2] (stereo partly drawn) [[^61Cu]Cu-DOTAGA-PSMA-I&T, DOTAGA-(l-y)fk(sub-KuE)]	LNCaP xenografts	8.95

* * *

Each item that follows carries a reported Biodistribution, Lung.
tested on: LNCaP xenografts; test: Biodistribution in LNCaP xenografts; assay type: in vivo, mice; conditions: 1 h after injection
endpoint: Biodistribution, Lung

molecule	assay_result
O=C([O-])CN(CCN(CC(=O)[O-])Cc1cc(CCC(=O)NCCCCCC(=O)NCCCC[C@H](NC(=O)N[C@@H](CCC(=O)O)C(=O)O)C(=O)O)ccc1[O-])Cc1cc(CCC(=O)O)ccc1[O-].[68Ga+3].[OH3+] [[^68Ga]Ga-PSMA-11, reference compound]	1.43 ± 0.43 %IA/g
O=C([O-])CN1CCN(CC(=O)O)CCN(CC(=O)[O-])CCN(C(CCC(=O)N[C@H](Cc2ccc(O)c(I)c2)C(=O)N[C@H](Cc2ccccc2)C(=O)N[C@H](CCCCNC(=O)CCCCCCC(=O)NCCCC[C@H](NC(=O)N[C@@H](CCC(=O)O)C(=O)O)C(=O)O)C(=O)O)C(=O)O)CC1.[61Cu+2] (stereo partly drawn) [[^61Cu]Cu-DOTAGA-PSMA-I&T, DOTAGA-(l-y)fk(sub-KuE)]	6.35 ± 0.35 %IA/g
O=C(O)CC[C@H](NC(=O)N[C@@H](CCCCNC(=O)[C@H](Cc1ccc2ccccc2c1)NC(=O)c1ccc(CNC(=O)[C@H](CCC(=O)O)NC(=O)[C@H](CCC(=O)O)NC(=O)c2ccc([18F])nc2)cc1)C(=O)O)C(=O)O [[^18F]PSMA-1007, reference compound]	2.08 ± 0.24 %IA/g
O=C([O-])CN1CCN(CC(=O)[O-])CCN(C(CCC(=O)N[C@H](Cc2ccc(O)c(I)c2)C(=O)N[C@H](Cc2ccccc2)C(=O)N[C@H](CCCCNC(=O)CCCCCCC(=O)NCCCC[C@H](NC(=O)N[C@@H](CCC(=O)O)C(=O)O)C(=O)O)C(=O)O)C(=O)O)CC1.[61Cu+2] (stereo partly drawn) [[^61Cu]Cu-NODAGA-PSMA-I&T, NODAGA-(l-y)fk(sub-KuE)]	1.69 ± 0.45 %IA/g

* * *

tested on: LNCaP xenografts; experiment: Biodistribution in LNCaP xenografts; assay type: in vivo, mice; details: 1 h after injection

compound	Biodistribution, Liver / %IA/g
O=C([O-])CN(CCN(CC(=O)[O-])Cc1cc(CCC(=O)NCCCCCC(=O)NCCCC[C@H](NC(=O)N[C@@H](CCC(=O)O)C(=O)O)C(=O)O)ccc1[O-])Cc1cc(CCC(=O)O)ccc1[O-].[68Ga+3].[OH3+] [[^68Ga]Ga-PSMA-11, reference compound]	0.54

* * *

system: LNCaP xenografts; assay: Biodistribution in LNCaP xenografts; type: in vivo, mice; conditions: 1 h after injection
Each item that follows carries a reported Tumor-to-Blood ratio.
endpoint: Tumor-to-Blood ratio

compound	assay_result
O=C(O)CC[C@H](NC(=O)N[C@@H](CCCCNC(=O)[C@H](Cc1ccc2ccccc2c1)NC(=O)c1ccc(CNC(=O)[C@H](CCC(=O)O)NC(=O)[C@H](CCC(=O)O)NC(=O)c2ccc([18F])nc2)cc1)C(=O)O)C(=O)O [[^18F]PSMA-1007, reference compound]	25.8
O=C([O-])CN1CCN(CC(=O)O)CCN(CC(=O)[O-])CCN(C(CCC(=O)N[C@H](Cc2ccc(O)c(I)c2)C(=O)N[C@H](Cc2ccccc2)C(=O)N[C@H](CCCCNC(=O)CCCCCCC(=O)NCCCC[C@H](NC(=O)N[C@@H](CCC(=O)O)C(=O)O)C(=O)O)C(=O)O)C(=O)O)CC1.[61Cu+2] (stereo partly drawn) [[^61Cu]Cu-DOTAGA-PSMA-I&T, DOTAGA-(l-y)fk(sub-KuE)]	2.97
O=C([O-])CN(CCN(CC(=O)[O-])Cc1cc(CCC(=O)NCCCCCC(=O)NCCCC[C@H](NC(=O)N[C@@H](CCC(=O)O)C(=O)O)C(=O)O)ccc1[O-])Cc1cc(CCC(=O)O)ccc1[O-].[68Ga+3].[OH3+] [[^68Ga]Ga-PSMA-11, reference compound]	45.3
O=C([O-])CN1CCN(CC(=O)[O-])CCN(C(CCC(=O)N[C@H](Cc2ccc(O)c(I)c2)C(=O)N[C@H](Cc2ccccc2)C(=O)N[C@H](CCCCNC(=O)CCCCCCC(=O)NCCCC[C@H](NC(=O)N[C@@H](CCC(=O)O)C(=O)O)C(=O)O)C(=O)O)C(=O)O)CC1.[61Cu+2] (stereo partly drawn) [[^61Cu]Cu-NODAGA-PSMA-I&T, NODAGA-(l-y)fk(sub-KuE)]	55.8

* * *

tested on: LNCaP xenografts; assay: Biodistribution in LNCaP xenografts; format: in vivo, mice; settings: 1 h after injection

compound	Biodistribution, Adrenals / %IA/g
O=C(O)CC[C@H](NC(=O)N[C@@H](CCCCNC(=O)[C@H](Cc1ccc2ccccc2c1)NC(=O)c1ccc(CNC(=O)[C@H](CCC(=O)O)NC(=O)[C@H](CCC(=O)O)NC(=O)c2ccc([18F])nc2)cc1)C(=O)O)C(=O)O [[^18F]PSMA-1007, reference compound]	7.18
O=C([O-])CN(CCN(CC(=O)[O-])Cc1cc(CCC(=O)NCCCCCC(=O)NCCCC[C@H](NC(=O)N[C@@H](CCC(=O)O)C(=O)O)C(=O)O)ccc1[O-])Cc1cc(CCC(=O)O)ccc1[O-].[68Ga+3].[OH3+] [[^68Ga]Ga-PSMA-11, reference compound]	19.2
O=C([O-])CN1CCN(CC(=O)O)CCN(CC(=O)[O-])CCN(C(CCC(=O)N[C@H](Cc2ccc(O)c(I)c2)C(=O)N[C@H](Cc2ccccc2)C(=O)N[C@H](CCCCNC(=O)CCCCCCC(=O)NCCCC[C@H](NC(=O)N[C@@H](CCC(=O)O)C(=O)O)C(=O)O)C(=O)O)C(=O)O)CC1.[61Cu+2] (stereo partly drawn) [[^61Cu]Cu-DOTAGA-PSMA-I&T, DOTAGA-(l-y)fk(sub-KuE)]	9.35
O=C([O-])CN1CCN(CC(=O)[O-])CCN(C(CCC(=O)N[C@H](Cc2ccc(O)c(I)c2)C(=O)N[C@H](Cc2ccccc2)C(=O)N[C@H](CCCCNC(=O)CCCCCCC(=O)NCCCC[C@H](NC(=O)N[C@@H](CCC(=O)O)C(=O)O)C(=O)O)C(=O)O)C(=O)O)CC1.[61Cu+2] (stereo partly drawn) [[^61Cu]Cu-NODAGA-PSMA-I&T, NODAGA-(l-y)fk(sub-KuE)]	17.3

* * *

system: LNCaP xenografts; assay: Biodistribution in LNCaP xenografts; format: in vivo, mice; settings: 1 h after injection
Each item that follows carries a reported Tumor-to-Intestine ratio.

compound	Tumor-to-Intestine ratio
O=C(O)CC[C@H](NC(=O)N[C@@H](CCCCNC(=O)[C@H](Cc1ccc2ccccc2c1)NC(=O)c1ccc(CNC(=O)[C@H](CCC(=O)O)NC(=O)[C@H](CCC(=O)O)NC(=O)c2ccc([18F])nc2)cc1)C(=O)O)C(=O)O [[^18F]PSMA-1007, reference compound]	10.3 ± 4.8
O=C([O-])CN1CCN(CC(=O)O)CCN(CC(=O)[O-])CCN(C(CCC(=O)N[C@H](Cc2ccc(O)c(I)c2)C(=O)N[C@H](Cc2ccccc2)C(=O)N[C@H](CCCCNC(=O)CCCCCCC(=O)NCCCC[C@H](NC(=O)N[C@@H](CCC(=O)O)C(=O)O)C(=O)O)C(=O)O)C(=O)O)CC1.[61Cu+2] (stereo partly drawn) [[^61Cu]Cu-DOTAGA-PSMA-I&T, DOTAGA-(l-y)fk(sub-KuE)]	0.68 ± 0.07
O=C([O-])CN(CCN(CC(=O)[O-])Cc1cc(CCC(=O)NCCCCCC(=O)NCCCC[C@H](NC(=O)N[C@@H](CCC(=O)O)C(=O)O)C(=O)O)ccc1[O-])Cc1cc(CCC(=O)O)ccc1[O-].[68Ga+3].[OH3+] [[^68Ga]Ga-PSMA-11, reference compound]	8.66 ± 6.90
O=C([O-])CN1CCN(CC(=O)[O-])CCN(C(CCC(=O)N[C@H](Cc2ccc(O)c(I)c2)C(=O)N[C@H](Cc2ccccc2)C(=O)N[C@H](CCCCNC(=O)CCCCCCC(=O)NCCCC[C@H](NC(=O)N[C@@H](CCC(=O)O)C(=O)O)C(=O)O)C(=O)O)C(=O)O)CC1.[61Cu+2] (stereo partly drawn) [[^61Cu]Cu-NODAGA-PSMA-I&T, NODAGA-(l-y)fk(sub-KuE)]	7.87 ± 2.93
